tested on: OVCAR-3 ovarian; assay: NCI-60 one-dose screen, 48 h (100 = growth as untreated, 0 = no growth, -100 = all killed); settings: 10 µM unless noted
Compounds without any hit were thinned out: in the full panel of roughly 83,000, 20% have a hit.
measurement type: growth (%)

>  <compound>
Cc1nc2cnc(N)c(C#Cc3cncc(C(=O)Nc4ccc(Cl)c(C(F)(F)F)c4)c3)c2nc1C

>  <assay system>
OVCAR-3 ovarian

>  <measurement unit>
%

>  <reading>
39.3

$$$$
>  <compound>
Clc1ccc2c(NCCCN3CCOCC3)c3oc4ccc(Cl)cc4c3nc2c1

>  <assay system>
OVCAR-3 ovarian

>  <measurement unit>
%

>  <reading>
104

$$$$
>  <compound>
N#Cc1nc(-c2ccccc2)oc1N1CC[C@@H](CO)C1

>  <assay system>
OVCAR-3 ovarian

>  <measurement unit>
%

>  <reading>
109

$$$$
>  <compound>
O=C(CSc1nnc(-c2ccc3nc(-c4ccc(Cl)cc4)[nH]c3c2)o1)Nc1ccc(C(=O)/C=C/c2ccc(Cl)cc2)cc1

>  <assay system>
OVCAR-3 ovarian

>  <measurement unit>
%

>  <reading>
121

$$$$
>  <compound>
CSCCC(C(=O)O)N1C(=O)/C(=C/c2ccc(O)c(O)c2)SC1=S (stereo not given)

>  <assay system>
OVCAR-3 ovarian

>  <measurement unit>
%

>  <reading>
111

$$$$
